assayed target: T1, Ovr110 (amino acids 1-282; Ovr110 Construct 1 without the 6-His tag) expressed on transiently transfected … (human, UniProt Q7Z7D3 25-282)
T1 construct: signal peptide not removed here
T1 sequence: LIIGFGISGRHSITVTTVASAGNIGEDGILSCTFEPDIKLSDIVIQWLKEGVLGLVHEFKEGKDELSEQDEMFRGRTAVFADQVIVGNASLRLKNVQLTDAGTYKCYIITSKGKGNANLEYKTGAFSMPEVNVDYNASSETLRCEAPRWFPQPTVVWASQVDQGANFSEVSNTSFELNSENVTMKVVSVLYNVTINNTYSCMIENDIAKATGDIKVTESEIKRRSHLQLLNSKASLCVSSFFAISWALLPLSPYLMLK
assay overview: flow cytometry; purified MAb; Ovr110-transfected 293F cells
measurement type: MFI
Give only the figure.

Example cases with answers are listed next.
- binder: "Ovr110.Q27 (antibody, IgG1, V domains shown, Mouse hybridoma MAb; also called Q27.4; Q27.2) VH: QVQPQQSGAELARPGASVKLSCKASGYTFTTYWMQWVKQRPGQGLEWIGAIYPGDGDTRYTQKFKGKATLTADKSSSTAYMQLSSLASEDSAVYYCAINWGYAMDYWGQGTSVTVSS VL: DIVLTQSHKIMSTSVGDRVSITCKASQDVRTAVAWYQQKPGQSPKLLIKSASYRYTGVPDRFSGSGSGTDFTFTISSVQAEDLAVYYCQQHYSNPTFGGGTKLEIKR"
  MFI: 5.48
- binder: "Ovr110.Q11 (antibody, V domains shown, Mouse hybridoma MAb; also called Q11.12.3; Ovr110.Q11.12.3) VH: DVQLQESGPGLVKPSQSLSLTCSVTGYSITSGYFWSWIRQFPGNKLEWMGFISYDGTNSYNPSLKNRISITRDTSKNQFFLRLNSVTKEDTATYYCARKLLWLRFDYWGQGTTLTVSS VL: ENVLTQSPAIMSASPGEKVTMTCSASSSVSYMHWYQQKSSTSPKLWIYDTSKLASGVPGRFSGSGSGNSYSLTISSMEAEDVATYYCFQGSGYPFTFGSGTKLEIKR"
  MFI: 5.47
- binder: "Ovr110.Q23 (antibody, IgG1, V domains shown, Mouse hybridoma MAb; also called Q23.6) VH: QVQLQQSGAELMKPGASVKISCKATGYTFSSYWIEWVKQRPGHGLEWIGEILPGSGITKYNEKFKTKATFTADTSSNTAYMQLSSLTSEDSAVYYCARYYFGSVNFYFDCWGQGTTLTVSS VL: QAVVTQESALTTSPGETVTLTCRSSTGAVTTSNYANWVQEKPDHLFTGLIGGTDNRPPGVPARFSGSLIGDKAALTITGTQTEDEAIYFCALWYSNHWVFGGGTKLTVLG"
  MFI: 4.98

Which MFI value is on record for Ovr110.Q19 (antibody, IgG1, V domains shown, Mouse hybridoma MAb; also called Q19.6; Ovr110.Q19.6) VH: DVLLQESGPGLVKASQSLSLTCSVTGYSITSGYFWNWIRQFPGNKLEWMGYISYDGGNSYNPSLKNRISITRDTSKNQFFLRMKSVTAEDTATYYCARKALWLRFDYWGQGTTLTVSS VL: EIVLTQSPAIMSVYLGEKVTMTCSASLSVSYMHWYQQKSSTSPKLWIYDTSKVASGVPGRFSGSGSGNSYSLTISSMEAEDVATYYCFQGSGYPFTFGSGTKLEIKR ?
5.25
